# IC50 / EC50 per entry
# assayTarget: WT human SLACK (Homo sapiens, UniProt Q5JUK3)
# Sequence (Q5JUK3 1-1235 isoform Q5JUK3-3): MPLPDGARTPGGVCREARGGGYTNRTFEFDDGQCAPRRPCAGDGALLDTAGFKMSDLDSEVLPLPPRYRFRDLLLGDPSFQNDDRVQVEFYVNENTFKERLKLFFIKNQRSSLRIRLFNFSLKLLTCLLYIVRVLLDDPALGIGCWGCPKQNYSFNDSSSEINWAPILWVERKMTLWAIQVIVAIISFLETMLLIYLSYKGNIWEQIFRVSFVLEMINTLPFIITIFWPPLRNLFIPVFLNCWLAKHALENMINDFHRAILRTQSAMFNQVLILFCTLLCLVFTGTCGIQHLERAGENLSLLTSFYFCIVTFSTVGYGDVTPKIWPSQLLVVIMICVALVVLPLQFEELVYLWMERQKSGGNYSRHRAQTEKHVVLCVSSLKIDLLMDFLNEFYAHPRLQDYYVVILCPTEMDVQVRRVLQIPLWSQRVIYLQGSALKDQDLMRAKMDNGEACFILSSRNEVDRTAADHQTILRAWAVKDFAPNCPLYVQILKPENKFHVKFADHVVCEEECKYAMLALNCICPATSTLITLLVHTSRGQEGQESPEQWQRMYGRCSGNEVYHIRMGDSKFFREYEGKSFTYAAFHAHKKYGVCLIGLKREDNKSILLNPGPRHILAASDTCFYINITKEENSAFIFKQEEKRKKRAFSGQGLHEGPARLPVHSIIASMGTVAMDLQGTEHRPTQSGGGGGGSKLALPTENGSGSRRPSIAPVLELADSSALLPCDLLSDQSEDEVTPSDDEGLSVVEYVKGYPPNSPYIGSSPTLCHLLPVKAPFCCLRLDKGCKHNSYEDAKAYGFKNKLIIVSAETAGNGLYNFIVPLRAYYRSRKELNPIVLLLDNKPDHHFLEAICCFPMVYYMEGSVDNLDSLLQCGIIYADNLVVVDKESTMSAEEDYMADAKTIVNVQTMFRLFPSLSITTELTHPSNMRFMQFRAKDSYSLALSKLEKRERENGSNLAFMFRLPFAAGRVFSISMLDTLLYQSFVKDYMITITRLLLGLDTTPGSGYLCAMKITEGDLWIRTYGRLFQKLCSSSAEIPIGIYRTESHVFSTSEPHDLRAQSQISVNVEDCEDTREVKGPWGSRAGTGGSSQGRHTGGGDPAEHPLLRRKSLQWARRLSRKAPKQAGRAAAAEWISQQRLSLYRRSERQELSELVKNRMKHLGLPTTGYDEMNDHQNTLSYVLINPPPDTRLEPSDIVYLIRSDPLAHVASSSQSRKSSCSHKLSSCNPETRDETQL
# protocolNotes: Tl+ flux assay in HEK-293 cells stably expressing WT human SLACK
# Format: cell-based
# conditionLabel: CRC; EC50 for compounds of mode Act

# molecule, assayTarget, IC50 / EC50
rows = [
    ("O=S(=O)(c1cccn2cnnc12)N1CC(c2nc(-c3ccc(F)cc3)no2)C1 [Compound 132]", "WT human SLACK (Homo sapiens, UniProt Q5JUK3)", ">10 µM"),
    ("CCOc1ccccc1S(=O)(=O)N1CC(c2nc(-c3ccc(F)cc3)c[nH]2)C1 [Compound 99]", "WT human SLACK (Homo sapiens, UniProt Q5JUK3)", "4.1 µM"),
    ("CCOc1ccccc1OC(=O)N1CC(c2nc(-c3ccsc3)no2)C1 [Compound 36]", "WT human SLACK (Homo sapiens, UniProt Q5JUK3)", ">10 µM"),
    ("CCOc1ccccc1S(=O)(=O)N1CC(c2cn(-c3ccc(F)cc3)nn2)C1 [Compound 95]", "WT human SLACK (Homo sapiens, UniProt Q5JUK3)", ">10 µM"),
    ("CCOc1ccccc1S(=O)(=O)N1CC(c2cc(-c3ccc(F)cc3)n[nH]2)C1 [Compound 103]", "WT human SLACK (Homo sapiens, UniProt Q5JUK3)", ">10 µM"),
]

Q) Given the entry CCOc1ccccc1C(=O)N1CC(c2nc(-c3ccsc3)no2)C1 [Compound 33] , report its measured IC50 / EC50.
A) >10 µM

Q) Given the entry O=S(=O)(c1ccccc1F)N1CC(c2nc(-c3ccsc3)no2)C1 [Compound 11] , report its measured IC50 / EC50.
A) 4.8 µM

Q) Given the entry Cc1cccc(S(=O)(=O)N2CC(c3nc(-c4ccsc4)no3)C2)c1 [Compound 21] , report its measured IC50 / EC50.
A) >10 µM

Q) Given the entry O=S(=O)(c1ccccc1OC1COC1)N1CC(c2nc(-c3ccc(F)cc3)no2)C1 [Compound 115] , report its measured IC50 / EC50.
A) 2.5 µM

---

# assayTarget: Maxi-K (Slo1 α1/β3) (Homo sapiens)
# Sequence (Q12791 whole entry, species assumed): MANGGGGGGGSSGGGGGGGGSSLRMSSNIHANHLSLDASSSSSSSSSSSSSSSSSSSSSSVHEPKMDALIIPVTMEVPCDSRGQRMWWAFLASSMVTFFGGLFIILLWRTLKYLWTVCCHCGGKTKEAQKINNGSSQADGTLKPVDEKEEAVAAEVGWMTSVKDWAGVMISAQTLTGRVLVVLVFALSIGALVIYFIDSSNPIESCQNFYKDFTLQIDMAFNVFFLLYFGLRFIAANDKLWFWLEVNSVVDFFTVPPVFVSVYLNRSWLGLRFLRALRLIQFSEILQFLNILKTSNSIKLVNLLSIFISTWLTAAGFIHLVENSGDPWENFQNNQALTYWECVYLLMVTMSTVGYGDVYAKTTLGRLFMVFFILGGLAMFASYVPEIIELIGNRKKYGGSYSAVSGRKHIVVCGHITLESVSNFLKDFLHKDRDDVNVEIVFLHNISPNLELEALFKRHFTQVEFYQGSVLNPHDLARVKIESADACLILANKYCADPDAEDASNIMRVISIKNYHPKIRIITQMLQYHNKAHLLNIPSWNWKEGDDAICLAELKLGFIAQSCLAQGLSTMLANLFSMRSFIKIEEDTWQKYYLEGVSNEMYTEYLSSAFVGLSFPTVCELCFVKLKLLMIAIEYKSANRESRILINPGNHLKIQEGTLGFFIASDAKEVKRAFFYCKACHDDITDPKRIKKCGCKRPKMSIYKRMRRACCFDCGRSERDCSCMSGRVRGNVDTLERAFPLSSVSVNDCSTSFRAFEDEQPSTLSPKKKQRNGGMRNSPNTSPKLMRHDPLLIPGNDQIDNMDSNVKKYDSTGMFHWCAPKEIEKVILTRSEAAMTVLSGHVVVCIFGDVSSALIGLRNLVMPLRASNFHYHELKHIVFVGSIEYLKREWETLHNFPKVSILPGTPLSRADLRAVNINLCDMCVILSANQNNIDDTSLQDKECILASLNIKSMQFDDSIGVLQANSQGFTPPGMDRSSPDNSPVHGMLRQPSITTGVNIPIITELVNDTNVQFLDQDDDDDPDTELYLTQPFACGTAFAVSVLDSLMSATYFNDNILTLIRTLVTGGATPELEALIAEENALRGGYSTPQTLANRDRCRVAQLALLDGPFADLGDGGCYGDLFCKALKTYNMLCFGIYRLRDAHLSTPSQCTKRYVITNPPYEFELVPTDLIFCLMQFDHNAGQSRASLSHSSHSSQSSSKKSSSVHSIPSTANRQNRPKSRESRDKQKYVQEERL
# Sequence (Q9NPA1 whole entry partner, species assumed): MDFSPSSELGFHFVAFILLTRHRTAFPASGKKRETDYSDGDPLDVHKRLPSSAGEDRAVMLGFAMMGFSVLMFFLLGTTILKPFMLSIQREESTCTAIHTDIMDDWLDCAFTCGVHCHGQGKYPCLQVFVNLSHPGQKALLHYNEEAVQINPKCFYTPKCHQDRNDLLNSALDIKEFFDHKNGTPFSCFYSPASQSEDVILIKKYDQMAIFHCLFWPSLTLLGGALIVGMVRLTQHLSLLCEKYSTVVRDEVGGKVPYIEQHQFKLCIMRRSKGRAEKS
# protocolNotes: Tl+ flux assay in HEK-293 cells expressing Maxi-K
# Assay type: cell-based
# conditionLabel: CRC
parameterMeasured: Maxi-K (Slo1 α1/β3) IC50

# molSmiles, result
records = [
    ("O=S(=O)(c1cccc2cccnc12)N1CC(c2nc(-c3ccc(F)cc3)no2)C1", "inactive"),
    ("[2H]C([2H])([2H])C([2H])([2H])Oc1ccccc1S(=O)(=O)N1CC(c2nc(-c3ccc(F)cc3)no2)C1", "inactive"),
    ("CCOc1ccccc1S(=O)(=O)N1CCC(c2nc(-c3ccc(F)cc3)no2)CC1", "inactive"),
]

---

# assayTarget: WT human SLACK (Homo sapiens)
# protocolNotes: Tl+ flux assay in HEK-293 cells stably expressing WT human SLACK
# Format: cell-based
# conditionLabel: CRC; IC50 for compounds of mode Inh (also cells printed Inactive)
parameterMeasured: IC50 / EC50

Examples with their reported IC50 / EC50 follow.
# molecule, parameterMeasured, result
data = [
    ("CCOc1ccccc1S(=O)(=O)N1CC(c2nc(-c3ccc(F)cn3)no2)C1 [Compound 67]", "IC50 / EC50", "Inactive"),
    ("O=S(=O)(c1ccc(Cl)cc1)N1CC(c2nc(-c3ccsc3)no2)C1 [Compound 16]", "IC50 / EC50", "Inactive"),
    ("CCOc1ccccc1S(=O)(=O)[C@H]1C[C@H](c2nc(-c3ccc(F)cc3)no2)C1 [Compound 73b]", "IC50 / EC50", ">10 µM"),
    ("O=S(=O)(c1ccccc1N1CCCC1)N1CC(c2nc(-c3ccc(F)cc3)no2)C1 [Compound 117]", "IC50 / EC50", "8.9 µM"),
    ("CC(C)Oc1ccccc1S(=O)(=O)N1CC(c2nc(-c3ccsc3)no2)C1 [Compound 27]", "IC50 / EC50", "3.7 µM"),
    ("O=S(=O)(c1cccc2c1OCCC2)N1CC(c2nc(-c3ccc(F)cc3)no2)C1 [Compound 119]", "IC50 / EC50", "8.7 µM"),
    ("CCOc1ccccc1S(=O)(=O)N1CC(c2nc(-c3ncccn3)no2)C1 [Compound 68]", "IC50 / EC50", "Inactive"),
]

Query molecule follows.
Q) Given the entry CCOc1ccccc1S(=O)(=O)N1CC(c2nc(-c3ccccc3)no2)C1 [Compound 40] , report its measured IC50 / EC50.
A) >10 µM
